# measurement_target: Delta-type opioid receptor (Homo sapiens, UniProt P41143); note: in other assays of this panel Not Active means under 50% inhibition at 10 µM
# Sequence (P41143 whole entry): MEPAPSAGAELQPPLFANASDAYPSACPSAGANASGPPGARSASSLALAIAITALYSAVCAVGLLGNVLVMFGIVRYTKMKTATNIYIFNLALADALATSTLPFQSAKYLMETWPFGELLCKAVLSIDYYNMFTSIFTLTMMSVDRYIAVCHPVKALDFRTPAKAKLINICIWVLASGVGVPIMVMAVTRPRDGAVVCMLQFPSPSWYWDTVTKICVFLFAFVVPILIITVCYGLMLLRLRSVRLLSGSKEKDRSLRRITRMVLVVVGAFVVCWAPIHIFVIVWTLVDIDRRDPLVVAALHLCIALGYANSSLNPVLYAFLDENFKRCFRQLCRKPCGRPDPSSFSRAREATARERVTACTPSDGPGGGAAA
# Assay type: cell membranes, HEK293, Membrane
# cond: hek293
property: IC50

As a guide, the following entries are already answered.
- C=C1[C@@H]2CCC3[C@@](CC[C@@H]4[C@H](C(=O)O)C[C@@H](O[C@@H]5O[C@H](CO)[C@@H](OS(=O)(=O)[O-])[C@H](OS(=O)(=O)[O-])[C@H]5OC(=O)CC(C)C)C[C@@]34C)(C2)[C@@H]1O.[K+].[K+] (some centres undefined) [ATRACTYLOSIDE]: Not Active
- Nc1nc2c(ncn2COC(CO)CO)c(=O)[nH]1 [GANCICLOVIR]: Not Active
- CN1[C@@H]2CC[C@H]1C[C@@H](OC(=O)c1c[nH]c3ccccc13)C2 [TROPISETRON]: Not Active
- COC(=O)c1ccc(O)cc1 [METHYLPARABEN]: Not Active
- CC(=O)CCCCn1c(=O)c2c(ncn2C)n(C)c1=O [PENTOXIFYLLINE]: Not Active
- CC1=C(/C=C/C(C)=C/C=C/C(C)=C\C(=O)O)C(C)(C)CCC1 [ISOTRETINOIN]: Not Active
- NC(=O)c1ccccc1O [SALICYLAMIDE]: Not Active
- CCc1cccc2c3c([nH]c12)C(CC)(CC(=O)O)OCC3 (centres undefined) [ETODOLAC]: Not Active

Which IC50 is reported for this compound? NCC1(CC(=O)O)CCCCC1 [GABAPENTIN]
Not Active

----------
Recorded IC50 values for a group of compounds are listed next.
# measurement_target: Thromboxane-A synthase (Homo sapiens);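 note: enzyme inhibition assay with PGH2 supplied as substrate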; note: in other assays of this panel Not Active means under 50% inhibition at 10 µM
# Sequence (P24557 whole entry): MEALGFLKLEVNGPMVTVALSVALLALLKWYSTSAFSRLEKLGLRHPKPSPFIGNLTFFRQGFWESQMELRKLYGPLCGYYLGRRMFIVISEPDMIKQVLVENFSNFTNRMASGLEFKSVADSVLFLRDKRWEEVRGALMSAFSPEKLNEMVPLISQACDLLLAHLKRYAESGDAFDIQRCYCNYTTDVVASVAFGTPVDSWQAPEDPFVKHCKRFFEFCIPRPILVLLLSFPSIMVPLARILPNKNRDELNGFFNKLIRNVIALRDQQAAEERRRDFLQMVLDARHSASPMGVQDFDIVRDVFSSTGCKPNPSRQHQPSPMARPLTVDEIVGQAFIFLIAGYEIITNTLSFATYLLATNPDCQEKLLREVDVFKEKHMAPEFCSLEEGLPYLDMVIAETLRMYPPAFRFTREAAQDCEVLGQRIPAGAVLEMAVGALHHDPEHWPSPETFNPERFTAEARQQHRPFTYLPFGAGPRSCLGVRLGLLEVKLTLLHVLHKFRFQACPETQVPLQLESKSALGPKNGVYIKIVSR
# run_description: biochemical
# Assay type: tissue-based, Platelet
# cond: read-out: IC50
Only the number, expressed in nM, is required.

* CN1C[C@H](C(=O)N[C@]2(C)O[C@@]3(O)[C@@H]4CCCN4C(=O)[C@H](Cc4ccccc4)N3C2=O)C=C2c3cccc4[nH]cc(c34)C[C@H]21 | 3060
* CC(C)(O)c1ccccc1CC[C@@H](SCC1(CC(=O)O)CC1)c1cccc(/C=C/c2ccc3ccc(Cl)cc3n2)c1 | 1520
* Oc1c(Cl)cc(Cl)cc1Sc1cc(Cl)cc(Cl)c1O | 1840
* O=c1cc(-c2ccccc2)oc2c1ccc1ccccc12 | 6760
* CC(C)(C)NC(=O)[C@@H]1CN(Cc2cccnc2)CCN1C[C@@H](O)C[C@@H](Cc1ccccc1)C(=O)N[C@H]1c2ccccc2C[C@H]1O.O | 1850
* COC(=O)C1=C(C)NC(C)=C(C(=O)OC)C1c1ccccc1[N+](=O)[O-] | 18600

Look at this compound and give its reported IC50. `Clc1ccccc1C(c1ccccc1)(c1ccccc1)n1ccnc1`
14

All figures here come from ChEMBL document CHEMBL1909046.
